- assay.system: IGF2 (Homo sapiens, UniProt P01344)
- Sequence (P01344 25-91): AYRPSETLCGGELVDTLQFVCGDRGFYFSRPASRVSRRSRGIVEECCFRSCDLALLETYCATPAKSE
- test.method.notes: SPR (Biacore T200) of recombinant IGF2R domain 11 mutants on immobilised biotinylated IGF2
- Type: binding
- Set-up: purchased GroPep
- reported.conditions: Table 1; 25° C., HBS-EP pH 7.4
The entries below are paired with their reported Kinetics koff.
Just the number in s⁻¹, nothing appended.

[
  {
    "molecule": "Q1632K: domain 11 HI loop mutant Q1632K, probably AB5 background (protein) MKSNEHDDCQVTNPSTGHLFDLSSLSGRAGFTAAYAKGWGVYMSICGENENCPPGVGACFGQTRISVGKANKRLRYVDQVLQLVYKDGSPCPSKSGLSYKSVISFVCRPEAGPTNRPMLISLDKKTCTLFFSWHTPLACEQATECSV",
    "Kinetics koff, s⁻¹": 0.0212
  }
]

Consider the record given below.
Kinetics koff reading for K1631W: domain 11 HI loop mutant K1631W, probably AB5 background (protein) MKSNEHDDCQVTNPSTGHLFDLSSLSGRAGFTAAYAKGWGVYMSICGENENCPPGVGACFGQTRISVGKANKRLRYVDQVLQLVYKDGSPCPSKSGLSYKSVISFVCRPEAGPTNRPMLISLDWQTCTLFFSWHTPLACEQATECSV : 0.0034

All figures here come from patent US10494415B2.
